- methodDescription: protein stability index of a GFP-peptide fusion (GPS, HEK-293T) (PSI 1-6); higher = more stable;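 further: 24-mer peptide tiles fused after GFP, lentivirally expressed, FACS-sorted into six equal bins by GFP/DsRed ratio, decoded by Illumina sequencing, PSI is the read-weighted mean bin number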
- condition: treatment: DMSO; c terminus: a fixed tail appended
observationType: protein stability index
Answers are plain numbers.

Hi there! I need protein stability index for each item below, if you can.
1. FLFVLGGEDQWNPNGKHSTNFVSR [KLHL14]
2. LNQKTSEKMKKRKMSNSFHGIRPP [RHOBTB3]
3. AEISQPPALSQLVNLYLGRSHFLW [TCF25]
4. AISSVERYDPQTNEWRMVASMSKR [KLHL20]

Solution:
2.11
3.95
2.67
3.71

====

- methodDescription: protein stability index of a GFP-peptide fusion (GPS, HEK-293T) (PSI 1-6); higher = more stable
- condition: treatment: DMSO; c terminus: a fixed tail appended
Would you mind telling me the reported protein stability index of each entry?
One number for each entry.

Use the examples below as a reference point.
INSERT INTO measurements (sequencedata, observedresult) VALUES
  ('EQQRKLETYLQNHFAEEERSKYDY [TENT5C]', 4.35),
  ('KAQQEFAAGVFSNPAVRTAAANAA [SCAMP3]', 4.13),
  ('TPSPADAKAPPTACYAGAAPAPSQ [CEBPB]', 4.75),
  ('PGSCGAGAPSPGSSDVSTAGTGAS [ELF3]', 4.98),
  ('QQPPPPRRAGAACTLRQKLIFSPC [WEE1]', 2.79),
  ('RLVPGGQRPADVPEPGRAGYPAPR [HAGHL]', 4.59);

Switching to the query record.
Problem: What value of protein stability index has been recorded for this entry: QKVTCFYQPAPYFAAEARYPIYVI [TENT5D]
Solution: 2.89

====

- methodDescription: protein stability index of a GFP-peptide fusion (GPS, HEK-293T) (PSI 1-6); higher = more stable
- condition: treatment: DMSO; c terminus: a fixed tail appended
observationType: protein stability index
Answers are plain numbers.

Would you please look over these solved cases?
INSERT INTO results (sequencedata, observedresult) VALUES
  ('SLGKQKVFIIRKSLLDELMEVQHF [SOAT2]', 2.58),
  ('GSSGGQQPSGMKEGVKRYEQEHAA [CHCHD6]', 5),
  ('EEHTTILRPSYTGLSSSSARFLSR [CDC14A]', 3.57);

Record protein stability index per entry; entries follow.
1. GLSGGALSPLRAASDPLLSSVSPA [TFE3]
2. QTGDPTSPIKLSPTSPVYRGSSSG [MTUS2]
3. DVYSFAIVIWGVLTQKKPFADEKN [RIPK4]
4. LHVKRSMGWKKACDELELHQRFLR [ZMYND11]

Solution:
3.91
4.76
2.61
2.31

Would you mind listing protein stability index for each of the following sequences?
1. ALELLGATFVDKKRDLLGALKYWK [FEM1C]
2. SWSDNERSSSRINIPERASGPEGN [FAM104B]

Solution:
2.25
4.79

Parameter requested: protein stability index. Apply to each item below.
1. DEALAIAALELLPRELFPPLFMAA [PRAME]
2. ESETRKAAKRMRLEIYQSSQDEPI [NOL4L]
3. YLAYINAKSRAEAALEEESRQRQS [SMARCE1]
4. SNFPRQYFALRKILKQLIADVTLD [TRIM39]

Solution:
1. 2.78
2. 4.58
3. 3.93
4. 2.54

====

- methodDescription: protein stability index of a GFP-peptide fusion (GPS, HEK-293T) (PSI 1-6); higher = more stable
- condition: treatment: MLN4924 1 uM, 8 h; c terminus: a fixed tail appended
Classify on protein stability index using group A = under 3, group B = from 3 up to 4, group C = 4 and over

Solved cases below.
INSERT INTO results (sequencedata, answerlabel) VALUES
  ('MNPYKIDIGAVYSHRPNQHNTVKL [PRIM1]', 'group A'),
  ('LRKGFSCVKNELLPSHPLELSEKN [POMP]', 'group B'),
  ('ASGVGFILGPVVGGYLTELEDGFY [MFSD9]', 'group A'),
  ('VAEETPDGAPALCPSPEALSPEPP [PRKX]', 'group C'),
  ('LRGLCANTVLRFLDLKGNNLRAAG [LRRC45]', 'group A'),
  ('MTLLPGDNSDYDYSALSCTSDASF [KCNG1]', 'group B'),
  ('KGKLMVCYETLPRGQCLLYNWEEE [SPAG8]', 'group A'),
  ('KSLLPHLKTGNSSPGIGAVYLANQ [RTP4]', 'group A');

Problem: Record EQQRKLETYLQNHFAEEERSKYDY [TENT5C] — which class?
Solution: group C

====

- methodDescription: protein stability index of a GFP-peptide fusion (GPS, HEK-293T) (PSI 1-6); higher = more stable
- condition: treatment: MLN4924 1 uM, 8 h; c terminus: a fixed tail appended
Please go through the items and note down their protein stability index.
Answers are plain numbers.

Example entries and their recorded answers appear below.
INSERT INTO measurements (sequencedata, observationtype, observedresult) VALUES
  ('EYMETGSLEKLLASEPLPWDLRFR [RIPK4]', 'protein stability index', 3.27),
  ('RDNAELENLIRERSQQQEPLLCPS [KRT33B]', 'protein stability index', 4.87),
  ('DEALAIAALELLPRELFPPLFMAA [PRAME]', 'protein stability index', 2.61),
  ('DKDKSPESHKAKNESWIKSHFSRL [C10orf62]', 'protein stability index', 3.48),
  ('RLLSHDQVAMPYQWEYPYLLSILP [JAGN1]', 'protein stability index', 1.99);

Hi there! I need protein stability index for each item below, if you can.
1. DPLANGCQGVSEAAHRLARRLYHL [PSD2]
2. GEYVVTAKAEGFTASTKNCMVGYD [CPXM2]
3. SLVTVGKHLTARVLCLIVLPLALY [POMT2]

Solution:
1: 3.52; 2: 3.65; 3: 2.58

# batch size: 2; output protein stability index per entry
1. KVCLLGDTGVGKSSIVWRFVEDSF [RAB22A]
2. EQERRERREQAAAAPFPSPAPASP [TFE3]

Solution:
1: 2.48; 2: 5.48

====

Record form. Attribute: protein stability index. Fill in for each entry.
- methodDescription: protein stability index of a GFP-peptide fusion (GPS, HEK-293T) (PSI 1-6); higher = more stable
- condition: treatment: DMSO; c terminus: native
Numbers only.

Below: 3 sequences and their reported protein stability index.
INSERT INTO results (sequencedata, observationtype, observedresult) VALUES
  ('DEIRWKYHSDTTPKIIESQRPPH [IQUB]', 'protein stability index', 4.25),
  ('SWEVVTSMGTQRCDAGVCVLREK [KLHL12]', 'protein stability index', 2.89),
  ('LFEAGDATLASDLQDWASVGAFL [FOXJ1]', 'protein stability index', 3.59);

# map each sequence to its protein stability index
1. MRSNYPPPLSSAALRGAGPTRRN [C6orf223]
2. YTSSLACHRALQDAFSGLFWQPS [MNAT1]
3. CPHCGDRTFYDPEPILCPCFMPN [PRAME]
4. APPPLKDDPEGDRDGCVITKVLL [ZBED3]
5. KYSVYIYVYFHTKLTSQNSKRVS [R3HDM1]
6. RGAPRGGGRGGSRSDRGGGRSRY [RBMX]
7. GRWLRSTRFSGSLDRLRETRVAD [PCDHGC5]
8. DALRFTADVRSVLSRNLHQHRLW [CTDNEP1]

Solution:
[3.1, 2.29, 3.98, 5.4, 2.55, 5.34, 2.62, 2.6]

Need protein stability index for each of these sequences.
1. AVSVMKKCRKLEDPQSSSQVTTS [SLC19A2]
2. VSSNNRLVVTGSGEHASVYQITY [TLE6]
3. ANFHLNDLEAPHEDDAEGEGEWD [TCF25]
4. NFFTTLRVVHHKFHSQRHGSKKD [TMEM120A]

Solution:
4.36
2.7
5.63
3.32

====

- methodDescription: protein stability index of a GFP-peptide fusion (GPS, HEK-293T) (PSI 1-6); higher = more stable
- condition: treatment: DMSO; c terminus: a fixed tail appended
observationType: protein stability index

Previously resolved entries follow.
INSERT INTO measurements (sequencedata, observationtype, observedresult) VALUES
  ('DDFRTKYQTEQSLRQLVESDINSL [KRT33B]', 'protein stability index', 4.6),
  ('IFRSYSRGAQGVILVYDIANRWSF [RAB40A]', 'protein stability index', 2.53),
  ('RSLFSSVPSKPPMSLEPQNGTYAG [ANKRD40]', 'protein stability index', 3.51),
  ('RGDERILSILRHQNLLKELQDLAL [CHGA]', 'protein stability index', 2.36),
  ('LDRVRGGRQKYKRRPEVDPLPFPG [ESRRA]', 'protein stability index', 3.68),
  ('FVELIGPKLREETAHMLGVRELRI [CABP4]', 'protein stability index', 2.69),
  ('EELEDSKALLYLPIAPEVEDPEEN [RBBP5]', 'protein stability index', 5.5),
  ('HSQELTNEKEKALQAQVQYQQQHE [SASS6]', 'protein stability index', 5.45),
  ('GDELYEQSDEEQDSVKVALLETNP [CLPTM1]', 'protein stability index', 5.37),
  ('IKSEDMLKILKPSIPLERIHFDSY [FBXO33]', 'protein stability index', 2.43);

Batch: protein stability index for all items listed.
1. EYQCQNLYQLEGNNQITCRNGQWS [CFHR2]
2. AFDKKVLKFDAYFQEDVPMSTEEQ [EFHC1]
3. DSIKDEDRTSLATFHEGKHNISHM [WDFY1]
4. QAQKDPKKDRPLARRKSELPQDPH [PPP2R5C]
5. TALALEPDAIRSRSNTLRERSQVR [PCDHGC5]
6. VIESFTELSRIVLMRHGMEKIWRP [RAB40C]
7. AAPAGSLSRKKRLELDDNLDTERP [TRIB3]
8. VKKNSAKSMGLKKKAFVWARNIGF [ACSBG2]

Solution:
[3.09, 4.71, 4.66, 5.12, 4.64, 3.11, 5.25, 2.03]

For every listed record, write down its protein stability index.
1. QERERVLTHFSRRYCQCNPDDSTS [PSD2]
2. EQTFSPAKSLSFRKGELVTASKAI [ADD1]
3. TPIPWLSSGEPVDYNVDIGIPLDG [MYOZ1]
4. GVDSMAEEGTSDSNTGSESNSATV [SMARCE1]
5. HLCLRKADQKLVIIKQIPVEQMTK [NEK8]
6. GHHERSIMTDLYYLSQTDGAGDWR [FUT8]
7. HPCGDKNCPAHWLAQDWERCNTTC [ADAMTSL2]

Solution:
3.88
3.99
3.98
5.41
2.46
3.2
4.21
